# System Under Test: T1, CD27 expressed on the cell surface (HT1080_CD27 cells) (human, UniProt P26842 20-260)
# T1 construct: whole, on cells; also called K562_CD27
# T1 sequence (looked up): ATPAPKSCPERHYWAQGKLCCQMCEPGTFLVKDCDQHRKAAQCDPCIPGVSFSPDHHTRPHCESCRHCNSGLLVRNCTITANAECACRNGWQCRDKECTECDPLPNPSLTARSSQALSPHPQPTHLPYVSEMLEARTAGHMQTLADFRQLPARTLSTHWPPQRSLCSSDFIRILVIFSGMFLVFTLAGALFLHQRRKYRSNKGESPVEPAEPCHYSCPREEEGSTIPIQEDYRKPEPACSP
# Experimental Details: cellular binding assay, HT1080_CD27 cells; further: test concentration or dose not given here
Cellular binding assay [RFU] strictly under 300 RFU means TRUE; at 300 RFU or over means FALSE.

>>> assigned_label("P018.S.02.A.C06 (antibody, V domains shown, V regions on human Ig constant parts; also called AB27_32) VH: QEQLEESGGGLVQPEGSLTLTCKASGIDFSSNYYISWVRQAPGKGLEWIGCIYTGSDDAAYYASWAKGRFTISKTSSTTVTLQMTSLTAADTATYFCAREILYPTNTDSFDLWGPGTLVTVSS VL: AQVLTQTPSSVSEPVGGIVTINCQASESISSRLAWYQQKPGQPPKLLIYRAATLASGVPSRFKGSGSGTDFTLTISDLESADAATYYCQSYVGASSGGYFFGGGTEVVVK")
"FALSE"
>>> assigned_label("P018.S.08.A.D02 (antibody, V domains shown, V regions on human Ig constant parts; also called AB27_138) VH: QSVEESGGRLVTPGTPLTLTCTVSGFSLSHYHILWVRQAPGEGLKYIGITLNNGRIDYATWAKGRFTISKTSTTVDLEITSPTTEDTATYFCAKYFVSESYDLWGQGTLVTVSS VL: TAVLTQTPSPVSAAVGSTVTINCQASQSVYNDNWLSWYQQKPGQPPKLLIYGASTLASGVPSRFKGSGSGTQFTLTISDVQSGDAATYYCLGGYKDNSDNVFGGGTEVVVK")
"FALSE"
>>> assigned_label("P018.S.06.A.C03 (antibody, V domains shown, V regions on human Ig constant parts; also called AB27_101) VH: QSLEESGGGLFQPGGSLTLTCKASGLDFSTNYYMCWVRQAPGKGLELIACISTSSGNTWYASWAKGRFTISKTSSTTVTLQMTSLTAADTATYFCARCDIVYVGYGYASRLDLWGQGTLVTVSS VL: AQVLTQTPSPVSAAVGGTVTINCQASESVYNNNNLAWYQQKPGQPPKFLIYGASSLASGVPSRFKGSGSGTQFTLTISDLESDDAATYYCAGGGSTSVGAFGGGTEVVVK")
"TRUE"
>>> assigned_label("P018.S.07.A.B06 (antibody, V domains shown, V regions on human Ig constant parts; also called AB27_118) VH: QEQLVESGGDLVKPGTSLTLTCKASGLDFSSTPYMCWVRQAPGKGLEWIACIYTGSVIYTYYASWAKDRFTISKISSTSVTLQMTSLTVADTATYFCARSPAGYAAYGYGGFNLWGPGTLVTVSS VL: AIEMTQTPFSVSAAVGGTVTINCQASQNIYNNLAWYQQKPGQPPKLLIYGASTLESGVPSRFEGSGSGTEYTLTISDLESDDAATYYCQSAYYSSSATDMAFGGGTEVVVK")
"FALSE"

These entries and their values trace back to patent US20210253725A1.
